These entries and their values trace back to patent US20150329594A1.

Biological target: human complement protein C3 (human, UniProt P01024 23-1663)
Sequence (P01024 23-1663 limits assumed): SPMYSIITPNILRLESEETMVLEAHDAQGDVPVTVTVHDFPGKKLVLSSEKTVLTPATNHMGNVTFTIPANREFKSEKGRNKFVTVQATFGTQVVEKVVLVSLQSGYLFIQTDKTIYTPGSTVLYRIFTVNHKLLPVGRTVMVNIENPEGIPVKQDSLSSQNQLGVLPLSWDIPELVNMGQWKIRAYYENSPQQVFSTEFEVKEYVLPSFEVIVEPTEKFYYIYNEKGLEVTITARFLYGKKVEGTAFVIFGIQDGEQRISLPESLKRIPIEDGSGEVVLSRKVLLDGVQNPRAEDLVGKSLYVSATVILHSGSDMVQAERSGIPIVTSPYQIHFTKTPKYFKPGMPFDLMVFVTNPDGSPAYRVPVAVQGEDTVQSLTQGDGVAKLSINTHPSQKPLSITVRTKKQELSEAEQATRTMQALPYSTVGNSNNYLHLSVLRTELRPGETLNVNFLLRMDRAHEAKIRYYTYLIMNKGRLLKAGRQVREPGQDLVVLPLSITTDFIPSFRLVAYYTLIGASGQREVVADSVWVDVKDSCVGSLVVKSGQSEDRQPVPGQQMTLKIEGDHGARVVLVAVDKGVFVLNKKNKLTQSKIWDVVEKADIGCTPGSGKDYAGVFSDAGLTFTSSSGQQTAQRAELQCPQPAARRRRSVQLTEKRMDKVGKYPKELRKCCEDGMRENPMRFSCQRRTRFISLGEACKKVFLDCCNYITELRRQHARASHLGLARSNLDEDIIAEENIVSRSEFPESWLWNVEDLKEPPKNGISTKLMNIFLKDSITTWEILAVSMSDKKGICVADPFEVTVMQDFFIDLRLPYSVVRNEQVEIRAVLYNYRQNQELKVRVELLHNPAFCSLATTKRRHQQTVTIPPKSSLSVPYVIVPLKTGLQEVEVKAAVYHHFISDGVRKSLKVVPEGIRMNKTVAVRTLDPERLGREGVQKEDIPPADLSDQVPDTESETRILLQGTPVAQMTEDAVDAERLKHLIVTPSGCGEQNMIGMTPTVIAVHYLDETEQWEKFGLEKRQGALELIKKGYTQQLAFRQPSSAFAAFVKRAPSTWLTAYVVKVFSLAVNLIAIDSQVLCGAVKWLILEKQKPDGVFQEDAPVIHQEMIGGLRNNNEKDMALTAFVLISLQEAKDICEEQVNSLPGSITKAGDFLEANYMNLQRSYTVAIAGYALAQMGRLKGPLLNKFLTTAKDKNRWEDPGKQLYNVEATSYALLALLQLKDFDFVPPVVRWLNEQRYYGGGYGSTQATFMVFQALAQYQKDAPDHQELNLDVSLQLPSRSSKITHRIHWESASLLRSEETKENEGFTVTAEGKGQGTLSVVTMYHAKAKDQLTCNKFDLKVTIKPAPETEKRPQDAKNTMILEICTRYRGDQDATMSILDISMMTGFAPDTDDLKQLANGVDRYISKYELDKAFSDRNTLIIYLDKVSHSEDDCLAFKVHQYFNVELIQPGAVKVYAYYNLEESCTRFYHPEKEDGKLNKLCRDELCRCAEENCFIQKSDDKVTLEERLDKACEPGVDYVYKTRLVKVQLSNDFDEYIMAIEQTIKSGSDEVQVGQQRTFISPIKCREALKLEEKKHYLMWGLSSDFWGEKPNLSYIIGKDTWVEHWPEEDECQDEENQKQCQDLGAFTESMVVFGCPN
Experiment: cell-based or functional assay
Bridge positions count the residues as written; N and C are the ends. Square brackets hold non-standard residues; d marks the D form. Nal = 1-naphthylalanine or 2-naphthylalanine
Measurement Kind: C3b ELISA IC50 (µM)
Quick reminder: number only, in µM, skip the unit.

Example entries begin here.
Binder	Unit Of Measurement	C3b ELISA IC50
Ac-RSICVWQDWGAHRCT-NH2 (disulfide 4-14) [Peptide 3.4, Ac-RS-ICVWQDWGAHRCT-NH2]	µM	0.7
Ac-ERICV[Nal]QDWG[Nal]HRCT-NH2 (disulfide 4-14; not fully specified; printed as Ac-ERICV{Nal}QDWG{Nal}HRCT-NH2) [Peptide 4.5, Ac-ER-ICV{Nal}QDWG{Nal}HRCT-NH2]	µM	3.8

Now look at this one.
QUERY: What C3b ELISA IC50 value was documented for this binder, Ac-RSICV[Nal]QDWG[Nal]HRCT-NH2 (disulfide 4-14; not fully specified; printed as Ac-RSICV{Nal}QDWG{Nal}HRCT-NH2) [Peptide 4.8, Ac-RS-ICV{Nal}QDWG{Nal}HRCT-NH2] ?
RESULT: 4.1
